# experimental target: T1, Heat-denatured BSA (bovine serum albumin autoclaved for 15 minutes) (bovine, UniProt P02769 25-607)
# T1 construct: also called heat-denatured BSA solution; reagent for detection
# T1 sequence (P02769 25-607 limits assumed): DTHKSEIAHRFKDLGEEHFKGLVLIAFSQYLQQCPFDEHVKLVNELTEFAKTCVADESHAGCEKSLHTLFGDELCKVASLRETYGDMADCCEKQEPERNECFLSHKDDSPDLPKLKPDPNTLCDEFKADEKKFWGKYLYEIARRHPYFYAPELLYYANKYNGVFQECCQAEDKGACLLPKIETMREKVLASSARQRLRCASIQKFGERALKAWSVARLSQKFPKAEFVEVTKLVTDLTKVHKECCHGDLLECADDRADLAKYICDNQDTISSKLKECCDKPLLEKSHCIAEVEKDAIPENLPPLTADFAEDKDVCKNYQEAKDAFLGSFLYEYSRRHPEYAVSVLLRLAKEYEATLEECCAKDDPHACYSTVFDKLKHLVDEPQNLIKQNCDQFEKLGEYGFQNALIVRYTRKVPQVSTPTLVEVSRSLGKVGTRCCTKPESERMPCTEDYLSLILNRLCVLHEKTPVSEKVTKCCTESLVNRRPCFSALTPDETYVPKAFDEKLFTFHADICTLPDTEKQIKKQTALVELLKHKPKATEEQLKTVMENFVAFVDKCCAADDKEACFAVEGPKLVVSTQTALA
# method summary: turbidity (OD550), Hill plot analysis; control solution without serum
observable: Kd
I'd appreciate it if you included the unit after the number.

Field Kd (entry SYSMEHFRWGKPVGKKRRPVKVYP (also called basic peptide of interest) [partial ACTH peptide consisting of the amino acids of positions 1 to 24 of ACTH] ) reads 25 µM
